Where do these numbers come from? They come from paper PMC6136712.

# System: normal esophageal epithelium cell line EACN42
# TEST_SUMMARY: FDA library drug sensitivity testing (CellTiter-Glo, 72 h), normal control cells
# Type: cell-based, human
# APPLIED_CONDITIONS: Homo sapiens, 72 h, EACN42 normal esophageal cells, cell viability (ATP), max test concentration 10μM
Friendly reminder: EC50 below 1000 nM is MET, at or above is NOT MET.

INSERT INTO results (molecule, target_system, cat) VALUES
  ('N#Cc1ccc(C(c2ccc(C#N)cc2)n2cncn2)cc1 [Letrozole]', 'normal esophageal epithelium cell line EACN42', 'MET'),
  ('CC(C)C[C@H](NC(=O)[C@H](Cc1ccccc1)NC(=O)c1cnccn1)B(O)O [Bortezomib]', 'normal esophageal epithelium cell line EACN42', 'MET'),
  ('CC(C)Cn1cnc2c(N)nc3ccccc3c21 [Imiquimod]', 'normal esophageal epithelium cell line EACN42', 'NOT MET'),
  ('Cc1nc(Nc2ncc(C(=O)Nc3c(C)cccc3Cl)s2)cc(N2CCN(CCO)CC2)n1 [Dasatinib]', 'normal esophageal epithelium cell line EACN42', 'MET'),
  ('CC(=O)OCC(CCn1cnc2cnc(N)nc21)COC(C)=O [Famciclovir]', 'normal esophageal epithelium cell line EACN42', 'NOT MET');

###

# Tested on: SK-GT2 cells
# TEST_SUMMARY: FDA library drug sensitivity testing (CellTiter-Glo, 72 h)
# Format: cell-based, human
# APPLIED_CONDITIONS: SK-GT2; sDSSmod = DSSmod (patient cells) - DSSmod (normal cells)
# Experimental: OE33, OE19 and SKGT2 human esophageal adenocarcinoma cell lines were obtained from the European Collection of Cell Culture ([…]). Flo1, EAC42 and EAC47 cells were established in the Capobianco Laboratory. […] Drug sensitivity testing (DST) was performed as described previously. […] After 72 hours of treatment, cell viability was assessed by measuring ATP levels via bioluminescence (CellTiter-Glo, Promega) according to manufactures recommendations. […]
Structures can show the parent of a compound that is named as a salt.
TEST_READOUT: sDSSmod

INSERT INTO results (compound, test_readout, measurement) VALUES
  ('COc1cc2c(Nc3ccc(Br)cc3F)ncnc2cc1OCC1CCN(C)CC1', 'sDSSmod', 7.721),
  ('Cn1cnc([N+](=O)[O-])c1Sc1ncnc2nc[nH]c12', 'sDSSmod', 5.733),
  ('O=c1c(-c2ccc(O)cc2)coc2cc(O)cc(O)c12', 'sDSSmod', 5.117),
  ('CC(=O)[C@]1(O)Cc2c(O)c3c(c(O)c2[C@@H](O[C@H]2C[C@H](N)[C@H](O)[C@H](C)O2)C1)C(=O)c1ccccc1C3=O [Idarubicin HCl]', 'sDSSmod', -17.1644),
  ('C=CC(=O)N1CCC[C@@H](n2nc(-c3ccc(Oc4ccccc4)cc3)c3c(N)ncnc32)C1', 'sDSSmod', 39.31);

###

# System: normal esophageal epithelium cell line EACN42
# TEST_SUMMARY: FDA library drug sensitivity testing (CellTiter-Glo, 72 h), normal control cells
# Assay type: cell-based, human
# APPLIED_CONDITIONS: Homo sapiens, 72 h, EACN42 normal esophageal cells, cell viability (ATP), max test concentration 10μM
pEC50: −log10 of the molar value. Structures can show the parent of a compound that is named as a salt.
Friendly reminder: pEC50 below 7 is met, at or above is not met.

INSERT INTO measurements (molecule, cat) VALUES
  ('CNC(=O)c1cc(Oc2ccc(NC(=O)Nc3ccc(Cl)c(C(F)(F)F)c3)c(F)c2)ccn1', 'met'),
  ('CCN1CCN(c2cc(-c3ccc(F)cc3)c3c(n2)CCCCCC3)CC1', 'not met'),
  ('Nc1nc(F)nc2c1ncn2[C@@H]1O[C@H](COP(=O)(O)O)[C@@H](O)[C@@H]1O', 'not met'),
  ('Nc1nc2[nH]cc(CCc3ccc(C(=O)N[C@@H](CCC(=O)O)C(=O)O)cc3)c2c(=O)[nH]1', 'not met'),
  ('CC(C)n1c(/C=C/C(O)CC(O)CC(=O)O)c(-c2ccc(F)cc2)c2ccccc21 (stereo not shown) [Fluvastatin sodium]', 'met'),
  ('CC[C@@]1(O)C(=O)OCc2c1cc1n(c2=O)Cc2cc3ccccc3nc2-1', 'not met'),
  ('CCC(C)(C)C(=O)O[C@H]1C[C@@H](C)C=C2C=C[C@H](C)[C@H](CC[C@@H]3C[C@@H](O)CC(=O)O3)[C@H]21', 'met'),
  ('CNC(=O)c1cc(Oc2ccc(NC(=O)Nc3ccc(Cl)c(C(F)(F)F)c3)cc2)ccn1', 'met'),
  ('N#CC1(c2ccc(NC(=O)c3cccnc3NCc3ccncc3)cc2)CCCC1', 'not met'),
  ('CCCS(=O)(=O)Nc1ccc(F)c(C(=O)c2c[nH]c3ncc(-c4ccc(Cl)cc4)cc23)c1F', 'not met'),
  ('CCN(CC)CCNC(=O)c1c(C)[nH]c(/C=C2\C(=O)Nc3ccc(F)cc32)c1C [Sunitinib Malate]', 'not met'),
  ('CN(C)C/C=C/C(=O)Nc1cc2c(Nc3ccc(F)c(Cl)c3)ncnc2cc1O[C@H]1CCOC1', 'met'),
  ('C[C@@H](Oc1cc(-c2cnn(C3CCNCC3)c2)cnc1N)c1c(Cl)ccc(F)c1Cl', 'met'),
  ('C=C1/C(=C\C=C2/CCC[C@]3(C)[C@@H]([C@H](C)/C=C/[C@H](C)C(C)C)CC[C@@H]23)C[C@@H](O)C[C@@H]1O', 'not met'),
  ('O=c1c(-c2ccc(O)cc2)coc2cc(O)cc(O)c12', 'met'),
  ('O=C1c2c(O)ccc(O)c2C(=O)c2c(NCCNCCO)ccc(NCCNCCO)c21 [Mitoxantrone Hydrochloride]', 'met'),
  ('Nc1ccn([C@@H]2O[C@H](CO)[C@@H](O)[C@@H]2O)c(=O)n1', 'met'),
  ('Nc1nc2nc[nH]c2c(=S)[nH]1', 'met'),
  ('NS(=O)(=O)OC[C@@H]1C[C@@H](n2ccc3c(N[C@H]4CCc5ccccc54)ncnc32)C[C@@H]1O', 'met'),
  ('CO[C@H]1C[C@@H]2CC[C@@H](C)[C@@](O)(O2)C(=O)C(=O)N2CCCC[C@H]2C(=O)O[C@H]([C@H](C)C[C@@H]2CC[C@@H](O)[C@H](OC)C2)CC(=O)[C@H](C)/C=C(\C)[C@@H](O)[C@@H](OC)C(=O)[C@H](C)C[C@H](C)/C=C/C=C/C=C/1C', 'met'),
  ('C=C1c2cccc(O)c2C(=O)C2=C(O)[C@]3(O)C(=O)C(C(N)=O)=C(O)[C@@H](N(C)C)[C@@H]3[C@@H](O)[C@H]12 [Methacycline hydrochloride]', 'met'),
  ('CO[C@H]1C[C@@H]2CC[C@@H](C)[C@@](O)(O2)C(=O)C(=O)N2CCCC[C@H]2C(=O)O[C@H]([C@H](C)C[C@@H]2CC[C@@H](OC(=O)C(C)(CO)CO)[C@H](OC)C2)CC(=O)[C@H](C)/C=C(\C)[C@@H](O)[C@@H](OC)C(=O)[C@H](C)C[C@H](C)/C=C/C=C/C=C/1C', 'met'),
  ('CC1=NN(c2ccc(C)c(C)c2)C(=O)/C1=N\Nc1cccc(-c2cccc(C(=O)O)c2)c1O', 'met'),
  ('CC[C@@]1(O)C(=O)OCc2c1cc1n(c2=O)Cc2cc3c(CN(C)C)c(O)ccc3nc2-1 [Topotecan HCl]', 'not met'),
  ('CS(=O)(=O)CCNCc1ccc(-c2ccc3ncnc(Nc4ccc(OCc5cccc(F)c5)c(Cl)c4)c3c2)o1', 'not met'),
  ('CN(Cc1cnc2nc(N)nc(N)c2n1)c1ccc(C(=O)N[C@@H](CCC(=O)O)C(=O)O)cc1 [Abitrexate, Methotrexate]', 'not met'),
  ('Cc1cn(-c2cc(NC(=O)c3ccc(C)c(Nc4nccc(-c5cccnc5)n4)c3)cc(C(F)(F)F)c2)cn1', 'met');

###

Listed here are compounds together with their documented cytotoxicity at 6 µM.
# Tested on: OE33 cells
# TEST_SUMMARY: Epigenetic compound library screen (CellTiter-Glo, 72 h)
# Type: cell-based, human
# APPLIED_CONDITIONS: Homo sapiens, OE33, 6μM, read-out: % cell killing /control
TEST_READOUT: cytotoxicity at 6 µM (%)

INSERT INTO assay_data (compound, target_system, measurement) VALUES
  ('O=C(/C=C/c1cccc(S(=O)(=O)Nc2ccccc2)c1)NO [PXD101]', 'OE33 cells', 92.3),
  ('CC(C)[C@H](C(=O)Nc1ccc(C(=O)NO)cc1)c1ccccc1 [(S)-HDAC-42]', 'OE33 cells', 89.3),
  ('CCN(CC)Cc1ccc2cc(COC(=O)Nc3ccc(C(=O)NO)cc3)ccc2c1 [Givinostat (ITF2357), Givinostat]', 'OE33 cells', 87.7);
